# experimental_system: High affinity choline transporter 1 (Homo sapiens)
# Sequence (Q9GZV3 whole entry): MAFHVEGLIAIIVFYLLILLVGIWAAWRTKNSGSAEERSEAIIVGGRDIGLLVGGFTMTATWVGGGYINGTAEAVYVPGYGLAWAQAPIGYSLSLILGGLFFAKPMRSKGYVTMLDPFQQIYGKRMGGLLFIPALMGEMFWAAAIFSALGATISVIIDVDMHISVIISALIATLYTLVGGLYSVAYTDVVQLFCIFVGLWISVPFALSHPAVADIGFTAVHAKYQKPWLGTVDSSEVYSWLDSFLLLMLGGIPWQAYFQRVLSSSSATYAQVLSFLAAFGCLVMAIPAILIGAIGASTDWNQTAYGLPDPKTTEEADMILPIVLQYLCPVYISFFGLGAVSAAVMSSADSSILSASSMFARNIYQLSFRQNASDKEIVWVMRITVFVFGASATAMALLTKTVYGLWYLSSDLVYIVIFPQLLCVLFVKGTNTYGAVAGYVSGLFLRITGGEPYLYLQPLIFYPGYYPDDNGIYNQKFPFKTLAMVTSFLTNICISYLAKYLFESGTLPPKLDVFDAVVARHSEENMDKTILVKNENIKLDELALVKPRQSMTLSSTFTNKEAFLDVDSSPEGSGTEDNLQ
# protocol_description: CHT inhibitors, dose response, cell-based, 5-point CRC, membrane potential dye (AID 504840)
# Format: functional
Active and inactive are the calls of the source. How the calls were made is not given here.
quantity: IC50

Worked set:
Ask: What IC50 value was documented for this molecule, CCCCc1cc(O)c(CCCC)c(O)c1 ?
Reply: 6.03 µM (active)

Ask: Moving on to COC(=O)Nc1ccc(S(=O)(=O)NNC(=O)c2c(O)c3ccccc3n(C)c2=O)cc1
Reply: 13.2 µM (active)

Ask: Moving on to O=C1NC(=O)C(=Cc2coc3ccccc3c2=O)C(=O)N1
Reply: 15.1 µM (active)

Ask: Moving on to CCCCCCCCN1[C@@H](CC(=O)O)c2ccc(C(F)(F)F)cc2S1(=O)=O
Reply: 18.2 µM (active)

Ask: Moving on to O=C(O)C1=CC[C@@H](c2ccc(Cl)cc2)N(S(=O)(=O)c2ccc(Cl)cc2)[C@H]1c1ccc(F)cc1
Reply: 13.2 µM (active)

For each entry beneath this line, provide reported IC50.
1. O=C(Nc1ccccc1)c1cccc(S(=O)(=O)NC2CCCC2)c1
2. O=[N+]([O-])c1c(Nc2ccccc2O)cc(Cl)c2nonc12
3. CCCc1cc(NCC2CCCO2)n2c(nc3ccccc32)c1C#N (stereo unspecified)
4. CC(C)c1ccc2c(c1)C1(NN=C(c3ccccc3)S1)C(=O)N2 (stereo unspecified)
5. Cc1c(C(=O)OC(C)C)sc(NC(=O)c2cccnc2)c1C#N
6. O=C(Nc1c(C(=O)N2CCC(N3CCCCC3)CC2)oc2ccccc12)c1ccc(F)cc1

Reply:
1: 13.2 µM (active); 2: 13.2 µM (active); 3: 8.03 µM (active); 4: 12.6 µM (active); 5: 1.82 µM (active); 6: 0.91 µM (active)

====

Please go through the items and note down their AC50.
# experimental_system: Cytochrome P450 3A4 (Homo sapiens);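 further: confirmatory qHTS run detecting inhibitors and substrates of CYP3A4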
# Sequence (P08684 whole entry): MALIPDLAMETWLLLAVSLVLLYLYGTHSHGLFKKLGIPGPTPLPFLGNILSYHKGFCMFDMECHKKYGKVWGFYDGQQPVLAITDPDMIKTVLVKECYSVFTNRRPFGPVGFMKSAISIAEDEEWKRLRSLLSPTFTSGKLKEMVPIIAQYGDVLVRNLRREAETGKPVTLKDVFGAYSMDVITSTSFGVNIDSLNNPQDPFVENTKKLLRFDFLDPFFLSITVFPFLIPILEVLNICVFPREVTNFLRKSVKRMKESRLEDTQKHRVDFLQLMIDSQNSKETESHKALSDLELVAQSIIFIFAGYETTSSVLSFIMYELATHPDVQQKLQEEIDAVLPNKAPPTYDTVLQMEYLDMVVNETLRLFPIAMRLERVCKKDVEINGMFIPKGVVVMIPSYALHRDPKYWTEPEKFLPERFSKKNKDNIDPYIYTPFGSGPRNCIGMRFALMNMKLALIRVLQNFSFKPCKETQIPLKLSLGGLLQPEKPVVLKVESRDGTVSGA
# measurement_parameters: Potency

Worked set:
Ask: What AC50 value was documented for this compound, O=C(OCC1CO1)C1CCCCC1C(=O)OCC1CO1 (stereo not given) ?
Reply: 25.1 µM (inconclusive)

Ask: Moving on to COC(=O)[C@@H]1C[C@H]2CC[C@H](O)C[C@H]2N1Cc1ccc(C(F)(F)F)cc1
Reply: 12.6 µM (inconclusive)

Ask: Moving on to C=C[C@@](C)(O)CC[C@@H]1[C@@]2(C)CCCC(C)(C)[C@@H]2CC[C@@]1(C)O
Reply: 10 µM (inconclusive)

Ask: Moving on to CN(C)c1ccc(N)cc1
Reply: 15.8 µM (inconclusive)

Ask: Moving on to Cc1cc(O)c(C=O)c(O)c1C(=O)O
Reply: 25.1 µM (inconclusive)

Ask: Moving on to Cc1cccc(/C=C\c2ccccc2)n1
Reply: 15.8 µM (inconclusive)

Ask: Moving on to CC(=O)c1cc2c(cc1O)OC(C)(C)C=C2
Reply: 31.6 µM (inconclusive)

Ask: Moving on to Nc1cc(Cl)cc(C(=O)O)c1Cl
Reply: 25.1 µM (inconclusive)

For each entry beneath this line, provide reported AC50.
1. CCN1C(C)=C(C(=O)OC)C(c2ccccc2)N2C(=O)[C@](O)(C(=O)OC)CC(C#N)=C12 (stereo not given in full)
2. COc1ccc(-c2coc3cc(O)ccc3c2=O)c(OC)c1

Reply:
3.98 µM (inconclusive)
39.8 µM (inconclusive)
